# ASSAY_SUMMARY: ocular exposure and pharmacokinetics after BID eyelid cream administration in minipigs
# Type: in vivo, Hanford minipigs
# PROTOCOL_CONDITIONS: Hanford, minipig, iris/ciliary body (ICB), topical, BID; 24 hours post final dose; 2% cream, 15 applications over 7.5 days
REPORTED_PROPERTY: concentration at 24 h (ng/g)

1. C[C@@H]1C[C@H]2[C@@H]3C[C@H](F)C4=CC(=O)C=C[C@]4(C)[C@@]3(F)[C@@H](O)C[C@]2(C)[C@@]1(OC(=O)C1C(C)(C)C1(C)C)C(=O)OCC#N | 20.5

====

# ASSAY_SUMMARY: ocular exposure and pharmacokinetics after BID eyelid cream administration in minipigs
# Assay type: in vivo, Hanford minipigs
# PROTOCOL_CONDITIONS: Hanford, minipig, bulbar conjunctiva, topical, BID; 4 hours post final dose; 2% cream, 15 applications over 7.5 days
REPORTED_PROPERTY: concentration at 4 h (ng/g)

1) C[C@@H]1C[C@H]2[C@@H]3C[C@H](F)C4=CC(=O)C=C[C@]4(C)[C@@]3(F)[C@@H](O)C[C@]2(C)[C@@]1(OC(=O)C1C(C)(C)C1(C)C)C(=O)OCC#N | 1930
